Overview of reported Population Mitotic Cells (%) across a group of compounds:
Tested on: Fibroblast
Experiment: Multiplex assay against human fibroblast
Assay type: toxicity, cell-based
Conditions: 48 h, 1 µM, compound concentration 1 uM, replicate 2
Report only the number, with the unit % understood.

>>> reported_value("CCc1cc2c(cc1CC)CC(NC[C@H](O)c1ccc(O)c3[nH]c(=O)ccc13)C2 [INDACATEROL]")
0
>>> reported_value("CCC(=O)O[C@]1(C(=O)SCF)[C@H](C)C[C@H]2[C@@H]3C[C@H](F)C4=CC(=O)C=C[C@]4(C)[C@@]3(F)[C@@H](O)C[C@@]21C [FLUTICASONE PROPIONATE]")
0
>>> reported_value("CCn1c(-c2nonc2N)nc2cnc(Oc3cccc(NC(=O)c4ccc(OCCN5CCOCC5)cc4)c3)cc21 [GSK-269962A]")
33
>>> reported_value("Cl.Cl.Nc1ncnc2c1c(-c1cccc(OCc3ccccc3)c1)cn2[C@H]1C[C@@H](CN2CCC2)C1")
50
>>> reported_value("CNc1oc(-c2cccc3ccccc23)nc1C#N")
20

I'd like to know its Population Mitotic Cells (%). The compound in question is COc1ccc(NS(=O)(=O)c2sc3ccc(Cl)cc3c2C)cc1N1CCNCC1.Cl
0

I'd like to know its Population Mitotic Cells (%). The compound in question is Nc1nc2c(c(N3CCNCC3)n1)CCC1=C2[C@@H]2CCCC[C@@H]2O1
58

I'd like to know its Population Mitotic Cells (%). The compound in question is Nc1ccc(C(=O)Nc2cccc(-c3nc(N4CCOCC4)c4oc5ncccc5c4n3)c2)cn1
0

I'd like to know its Population Mitotic Cells (%). The compound in question is Cc1cc2c(cc1N1C(=O)c3cccc4c(CCCO)ccc(c34)C1=O)n(C)c(=O)n2C
0

I'd like to know its Population Mitotic Cells (%). The compound in question is CC(C)N1CCC(C)(C)c2cc(C#Cc3ccc(C(=O)O)cc3)ccc21
100

I'd like to know its Population Mitotic Cells (%). The compound in question is CCCn1c(=O)c2[nH]c(C34CC5CC(CC3C5)C4)nc2n(CCC)c1=O [ROLOFYLLINE]
100

====

Test system: HEK-293T
Test: Multiplex assay against HEK293T
Format: toxicity, cell-based
Conditions: human, 12 h, 1 µM, compound concentration 1 uM, replicate 1
EXPERIMENTAL_READOUT: Population Normal (%)
Report only the number, with the unit % understood.

Please review the entries below; each comes with its answer.
>>> reported_value("COc1ccc(NS(=O)(=O)c2sc3ccc(Cl)cc3c2C)cc1N1CCNCC1.Cl")
64
>>> reported_value("Nc1nc2c(c(N3CCNCC3)n1)CCC1=C2[C@@H]2CCCC[C@@H]2O1")
89
>>> reported_value("Cl.Cl.NC1(c2ccc(-c3nc4ccn5c(=O)[nH]nc5c4cc3-c3ccccc3)cc2)CCC1")
79
>>> reported_value("CCCn1c(=O)c2[nH]c(C34CC5CC(CC3C5)C4)nc2n(CCC)c1=O")
84

Shifting focus to the compound that follows.
I'd like to know its Population Normal (%). The compound in question is CNC(=O)c1cc(Oc2ccc(NC(=O)Nc3cc(C(C)(C)C)nn3-c3ccc4ncccc4c3)c(F)c2)ccn1
84

This collection of values is drawn from ChEMBL document CHEMBL4689842.
